test system: SF-268; experiment: NCI tumour cell line growth inhibition, 48 h
The source made the active and inactive calls. No stated cut-off is given here; in the data, active = GI50 up to about 1.1 µM and inactive = higher.
Give one outcome, nothing more. List: active, inactive

Past entries and their recorded results:
Outcome logged for CN(C)CCNC(=O)c1ccc2nc3c(nc2c1)C(=O)c1ccccc1-3 in this assay:
inactive

Record request — test call for O=C1CSC(=O)/C1=C\NNc1nc2ccccc2o1
inactive

Please share the test call associated with N#CC1=C(S)N(C2OC(CO)C(O)C(O)C2O)C(c2ccccc2)=CC1c1cccs1 (configuration not stated) .
inactive

# lookup: test call for c1ccc2c(c1)c1c(n2CCOCCN2CCCC2)CCCC1
inactive

// outcome(item) with item = Clc1ccccc1-c1nnc2c(-c3ccccc3)nc3ccccc3n12
inactive

Outcome logged for COc1ccc2c(c1OC)C1=C(C2=O)c2cc3c(cc2CCN1)OCO3 in this assay:
inactive

How did this test come out for COc1cccc(/N=N/N2CCCC2)c1 ?
inactive

For O=C(CN1C(=O)c2ccccc2C1=O)NC1(C(=O)O)CCCC1 , what call appears in the results of this test?
inactive

---
GET /call?item= CCOC(=O)C[C@@H]1C2(C=C[C@@]13CO3)OCC(C)(C)CO2 returns the recorded outcome of this test.
inactive

====

test system: SF-295; test: NCI tumour cell line growth inhibition, 48 h
Active and inactive are the calls of the source. No stated cut-off is given here; in the data, active = GI50 up to about 1.1 µM and inactive = higher.
measurement.kind: GI50

Please review the entries below; each comes with its answer.
For the compound COP(=O)(OC)[C@H](O)[C@H]1C[C@@H]1c1ccccc1 , give its reported GI50.
> 100 µM (inactive)

Name the recorded GI50 of the item Clc1nc(Nc2nc3ccccc3[nH]2)nc(Cl)c1Cc1ccccc1 in your answer.
> 100 µM (inactive)

Provide GI50 value for the following compound: CC(O)/C=C/C1OC(=O)CC1Nc1ccc(C=O)cc1 (centres undefined)
28 µM (inactive)

Supply GI50 value. Item: COC(=O)C1CCC(=O)N1/C(C)=N/NC(=O)Nc1ccc(Cl)c(Cl)c1 (centres undefined)
> 100 µM (inactive)

// Input: CCOC(=O)c1nc2ccccc2nc1Oc1cc(OC)c(OC)c(OC)c1 . Output its GI50 only.
45.2 µM (inactive)

Provide measured GI50 value, entry: CNc1cc2oc(=O)cc(C)c2cc1C
> 100 µM (inactive)

State its GI50 for this compound: O=C(O)c1ccc(Nc2ccnc3cc(Cl)ccc23)cc1O
> 100 µM (inactive)

In one line, give reported GI50 of the entry O=C1c2nc3n(c2C(=O)c2c1nc1n2CCC1)CCC3 .
5.37 µM (inactive)

Then there is this compound:
Look up and report measured GI50 for this entry: COc1ccc(/C=C2\C[C@H]3[C@@H]4CC=C5C[C@@H](O)CC[C@]5(C)[C@H]4CC[C@]3(C)\C2=N\O)cc1
6.98 µM (inactive)

====

system: SK-OV-3; test: NCI tumour cell line growth inhibition, 48 h
Calls of active or inactive are those of the source. No stated cut-off is given here; in the data, active = GI50 up to about 1.1 µM and inactive = higher.
measurement.kind: GI50

# example entries with known answers
Return the recorded GI50 value; entry: CCOC(=O)CCC(C(=O)OCC)n1nnc2ccc(Nc3c(C)[n+]([O-])c4cc(Cl)ccc4[n+]3[O-])cc21 (stereo unspecified)
99.5 µM (inactive)

Assign GI50 to the following record: CN(N=O)C(=O)NNC(=O)N(C)N=O
> 100 µM (inactive)

Output measured GI50 for this item: CC(=O)OCC1OC(N2C(c3ccccc3)=CC(c3cccs3)C(C#N)=C2S)C(OC(C)=O)C(OC(C)=O)C1OC(C)=O (stereo unspecified)
> 100 µM (inactive)

Return GI50 (reported value) for this compound: CCOc1cc(NC(C)=O)ccc1C(=O)NN1C(=O)C(Cl)C1c1ccco1 (stereo unspecified)
18.3 µM (inactive)

Dear colleague, please send me the reported GI50 for O=C(O)CC(CC(=O)O)C(=O)O [TRICARBALLYLIC ACID] when you can.
> 100 µM (inactive)

Okay, now this compound:
Quickly give me recorded GI50 for O=C1C(Cl)=C(N2CCC[C@H]2CO)C(=O)c2c(O)ccc(O)c21
> 10 µM (inactive)
